# methodDescription: Mouse plasma stability assay
# Format: in vitro ADME
# protocolConditions: compound 1.0 μM, read-out: Half-life (t1/2) (converted)
reportedProperty: half-life at 1 μM (h)
# unit: h | format: bare number

O=C(C1CC1)N1CCN(Cn2sc3ccccc3c2=O)CC1; 2.4

Shifting focus to the molecule that follows.
Request: So what's the measured half-life at 1 μM for this one? CCOC(=O)[C@H](CCc1ccccc1)N[C@@H](C)C(=O)N1CCC[C@H]1C(=O)O [Enalapril, reference compound]
Response: 0.6

====

# systemName: human catalytic PDI A1 a domain (PDIa) (Homo sapiens)
# Construct: made in house; host or cells: Escherichia coli BL21-Gold (DE3)
# Sequence (P07237 with tags, fused parts or gaps): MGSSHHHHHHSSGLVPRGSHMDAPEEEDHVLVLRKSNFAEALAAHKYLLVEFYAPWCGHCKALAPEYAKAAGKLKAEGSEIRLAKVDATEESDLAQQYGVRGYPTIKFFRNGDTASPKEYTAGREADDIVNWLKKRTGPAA
# methodDescription: Isothermal titration calorimetry (ITC) binding to PDIa
# protocolConditions: PDIa, first site, Table 5; read-out: ITC Assay KD1 (2 binding sites)
reportedProperty: pKd
# log scale: pKd equals minus log10 of the concentration in mol/L

O=c1c2ccccc2sn1-c1ccccc1; 8.09

Shifting focus to the compound that follows.
Request: So what's the measured pKd for this one? O=c1c2ccccc2sn1Cc1ccccc1 [LC-5, 2-benzylbenzo[d]isothiazol-3(2H)-one]
Response: 7.37

====

# System: PC12 mHTT^Q103 cells
# methodDescription: Rescue of PC12 cells from mHTT^Q103 induced cell death (Alamar blue viability)
# Format: cell-based
# protocolConditions: Rattus norvegicus, PC-12; Table 5; read-out: Cell Viability Assay EC50
With a cut-off of 2000 nM, any EC50 strictly below it is called fulfilled; any EC50 meeting it or above is called not fulfilled.

Sample answers from the record:
O=c1c2ccccc2sn1Cc1ccc(Br)cc1 [LC-26]; fulfilled
O=c1c2ccccc2sn1CN1CCN(Cc2ccccc2)CC1 [LC-22]; fulfilled
Cc1cc(C)c2c(=O)n(CN3CCN(C(=O)C4CC4)CC3)sc2n1 [LC-53]; not fulfilled
O=c1c2ccccc2sn1-c1ccc(Oc2ccccc2)cc1 [LC-37]; fulfilled
O=c1c2ccccc2sn1Cn1sc2ccccc2c1=O [LC-17]; fulfilled

Request: I'd appreciate it if you could check whether O=c1c2ccccc2sn1CN1CCSCC1 [LC-3] has EC50 smaller than 2000 nM.
Response: fulfilled

Request: I'd appreciate it if you could check whether O=C(Nc1ccc(Cc2ccccc2)cc1)c1ccccc1S [LC-23] has EC50 smaller than 2000 nM.
Response: not fulfilled

Request: I'd appreciate it if you could check whether O=c1c2ccccc2sn1CN1CCC(O)CC1 [LC-7] has EC50 smaller than 2000 nM.
Response: fulfilled

Request: I'd appreciate it if you could check whether O=c1[nH]sc2ncccc12 [LC-47] has EC50 smaller than 2000 nM.
Response: not fulfilled

Request: I'd appreciate it if you could check whether O=C(Nc1cccc(F)c1)c1ccccc1S [LC-30] has EC50 smaller than 2000 nM.
Response: not fulfilled

Request: I'd appreciate it if you could check whether Cc1nc2sn(CN3CCN(C(=O)C4CC4)CC3)c(=O)c2c(C)c1C [LC-52] has EC50 smaller than 2000 nM.
Response: not fulfilled

Request: I'd appreciate it if you could check whether O=c1c2ccccc2sn1CN1CCOCC1 [LC-18] has EC50 smaller than 2000 nM.
Response: fulfilled

====

# methodDescription: Mouse plasma protein binding assay
# Assay type: in vitro ADME
# protocolConditions: mouse; plasma, compound 2000 ng/mL, mean±SD (n=3)
reportedProperty: recovery at 4 h, 2000 ng/mL (%)
# unit: % | format: bare number

Request: So what's the measured recovery at 4 h, 2000 ng/mL for this one? O=C(C1CC1)N1CCN(Cn2sc3ccccc3c2=O)CC1 [LOC14]
Response: 114
